All values here come from patent US9611267B2.

- SUBJECT OF TEST: FGFR3 (Homo sapiens (Human), UniProt P22607)
- Sequence (P22607 23-806): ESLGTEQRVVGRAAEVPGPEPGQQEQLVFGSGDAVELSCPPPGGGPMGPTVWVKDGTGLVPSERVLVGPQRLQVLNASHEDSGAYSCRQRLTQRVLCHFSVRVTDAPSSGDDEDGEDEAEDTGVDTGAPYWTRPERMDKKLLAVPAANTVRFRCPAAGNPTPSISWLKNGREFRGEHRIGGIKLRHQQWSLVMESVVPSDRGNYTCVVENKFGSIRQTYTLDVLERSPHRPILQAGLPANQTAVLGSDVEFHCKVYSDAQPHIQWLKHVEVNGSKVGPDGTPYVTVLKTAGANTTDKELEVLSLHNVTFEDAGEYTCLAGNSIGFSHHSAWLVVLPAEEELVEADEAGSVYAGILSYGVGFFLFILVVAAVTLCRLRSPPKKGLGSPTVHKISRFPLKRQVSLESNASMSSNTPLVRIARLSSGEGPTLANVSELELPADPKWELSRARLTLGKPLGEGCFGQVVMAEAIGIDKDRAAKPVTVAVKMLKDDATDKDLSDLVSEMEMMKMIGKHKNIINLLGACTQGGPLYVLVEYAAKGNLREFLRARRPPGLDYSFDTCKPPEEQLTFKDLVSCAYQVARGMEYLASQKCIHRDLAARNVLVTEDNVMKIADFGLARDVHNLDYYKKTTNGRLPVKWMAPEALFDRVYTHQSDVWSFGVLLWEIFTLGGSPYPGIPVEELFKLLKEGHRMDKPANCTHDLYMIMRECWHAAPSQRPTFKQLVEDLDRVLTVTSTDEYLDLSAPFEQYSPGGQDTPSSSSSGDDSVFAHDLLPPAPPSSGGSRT
- ASSAY EXPLANATION: FGFR enzymatic assay (FRET peptide phosphorylation), FGFR3
- Assay type: biochemical
- CONDITION: FGFR3 enzyme (Millipore), ATP 140 μM
MEASURE NAME: IC50

| SMILES CODE | RESULT |
| --- | --- |
| COc1cc(OC)c(Cl)c(N2Cc3cnc4[nH]c(-c5cnn(C)c5)cc4c3N(C)C2=O)c1 | < 100 nM |
| COc1cc(OC)c(F)c(N2Cc3cnc4ccsc4c3N(C)C2=O)c1F | < 100 nM |
| COc1cc(OC)c(F)c(N2Cc3cnc4[nH]ccc4c3C(C)(C)C2=O)c1F | < 100 nM |
| COc1cc(OC)c(F)c(N2Cc3cnc4[nH]c(CCN5CCN(C)CC5)cc4c3N(c3cccc(F)c3F)C2=O)c1F | < 100 nM |
| CCN1C(=O)N(c2c(F)c(OC)cc(OC)c2Cl)Cc2cnc3[nH]c(CN4CCOCC4)cc3c21 | < 100 nM |

Can you share its IC50? I mean this compound: `COc1cc(OC)c(F)c(N2Cc3cnc4[nH]ccc4c3N(c3cccnn3)C2=O)c1F` < 100 nM

Can you share its IC50? I mean this compound: `COc1cc(OC)c(Cl)c(N2Cc3cnc4c(c3N(C3CCC3)C2=O)CC(=O)N4)c1F` < 100 nM

Can you share its IC50? I mean this compound: `COc1cc(OC)c(F)c(N2Cc3cnc4[nH]nc(CCO)c4c3N(C)C2=O)c1F` < 100 nM

Can you share its IC50? I mean this compound: `CCN1CCN(Cc2cc3c4c(cnc3[nH]2)CN(c2c(F)c(OC)cc(OC)c2F)C(=O)N4c2ccc(F)cc2)CC1` < 100 nM

Can you share its IC50? I mean this compound: `COc1cc(OC)c(F)c(N2Cc3cnc4[nH]ccc4c3CC2=O)c1F` < 100 nM

Can you share its IC50? I mean this compound: `COc1cc(OC)c(F)c(N2Cc3cnc4[nH]c(CN5CC[C@H](N(C)C)C5)cc4c3C(C)(C)C2=O)c1F` < 100 nM
